Source listed as PubChem BioAssay (NCATS).

Assay: Drug repurposing screens with cells derived from glioblastoma tumor samples (AID 1345199); also: % is scaled to controls: 0 for no effect and ±100 for the full control effect
Settings: GBM patient neurospheres viability, ATP luminescence, 48 h; at 20 µM (top of the series); tumour line C
Records with an inconclusive call do not appear.
Entries and their measured activity, negative = cell killing follow.
recorded endpoint: activity, negative = cell killing (%)

| molecule | recorded endpoint | measured value |
| --- | --- | --- |
| CCc1cccc(CC)c1NC(=O)CN(CC(=O)O)CC(=O)O | activity, negative = cell killing | -11.2 |
| NS(=O)(=O)c1cc(C2(O)NC(=O)c3ccccc32)ccc1Cl (stereo not drawn) | activity, negative = cell killing | 3.89 |
| C[N+]1(C)CCCC(OC(=O)C(O)(c2ccccc2)c2ccccc2)C1 (stereo not drawn) | activity, negative = cell killing | -3.92 |
